# measuredOn: Ephrin type-A receptor 8 (Homo sapiens) (UniProt P29322)
# Sequence (whole entry): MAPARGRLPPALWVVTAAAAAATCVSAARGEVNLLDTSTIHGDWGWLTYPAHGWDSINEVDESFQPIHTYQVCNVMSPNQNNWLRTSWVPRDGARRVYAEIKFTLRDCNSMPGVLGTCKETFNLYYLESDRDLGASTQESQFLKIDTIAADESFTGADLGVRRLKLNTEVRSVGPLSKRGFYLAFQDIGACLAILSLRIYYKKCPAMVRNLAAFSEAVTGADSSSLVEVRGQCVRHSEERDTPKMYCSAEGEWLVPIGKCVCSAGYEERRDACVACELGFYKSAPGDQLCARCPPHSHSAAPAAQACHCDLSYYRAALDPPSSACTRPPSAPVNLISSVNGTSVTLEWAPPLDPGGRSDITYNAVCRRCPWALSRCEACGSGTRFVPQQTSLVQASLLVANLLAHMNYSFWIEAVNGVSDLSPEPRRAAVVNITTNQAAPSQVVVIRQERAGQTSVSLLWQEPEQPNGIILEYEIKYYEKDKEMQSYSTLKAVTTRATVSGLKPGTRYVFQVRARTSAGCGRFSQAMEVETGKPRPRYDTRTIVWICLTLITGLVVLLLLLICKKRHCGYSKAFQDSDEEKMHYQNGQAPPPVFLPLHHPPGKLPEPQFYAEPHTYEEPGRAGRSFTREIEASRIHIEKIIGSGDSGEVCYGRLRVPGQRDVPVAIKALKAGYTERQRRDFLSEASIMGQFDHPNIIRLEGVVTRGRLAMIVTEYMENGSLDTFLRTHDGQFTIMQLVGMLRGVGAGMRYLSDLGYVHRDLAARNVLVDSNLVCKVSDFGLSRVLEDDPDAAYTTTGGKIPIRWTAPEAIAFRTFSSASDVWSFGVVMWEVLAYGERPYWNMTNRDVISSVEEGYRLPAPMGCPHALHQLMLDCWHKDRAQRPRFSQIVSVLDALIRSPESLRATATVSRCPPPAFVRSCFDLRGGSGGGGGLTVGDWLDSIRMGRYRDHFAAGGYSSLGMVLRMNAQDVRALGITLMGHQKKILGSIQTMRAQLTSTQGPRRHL
# experimentalContext: at 1 µM
residual activity for assorted compounds
measurementLabel: residual activity

testSmiles	measurementLabel	result
COc1cc2ncnc(Nc3ccc(NC(=O)c4ccccc4)cc3)c2cc1OC	residual activity	103%
CC(C)n1cnc2c(NCc3ccccc3)nc(NCCCO)nc21	residual activity	97%
COc1cc2ncnc(N3CCN(C(=O)Nc4ccc(Oc5ccccc5)cc4)CC3)c2cc1OC	residual activity	87%
O=C(Nc1cccc(Nc2nccc(Nc3cccc(C(F)(F)F)c3)n2)c1)C1CC1	residual activity	97%
Ic1cccc(CSc2nnc(-c3ccncc3)o2)c1	residual activity	89%
O=[N+]([O-])c1ccc(-c2nc(-c3ccc(F)cc3)c(-c3ccncc3)[nH]2)cc1	residual activity	93%
